The origin of these recorded values is paper PMC4929166.

target: CB1 receptor (Homo sapiens, UniProt P21554); test: biochemical; assay type: binding; parameters: expressed in transfected cells; host or cells: CHO cells (membrane preparation); conditions: Table S1, selectivity index from Ki values
Sequence (P21554 whole entry): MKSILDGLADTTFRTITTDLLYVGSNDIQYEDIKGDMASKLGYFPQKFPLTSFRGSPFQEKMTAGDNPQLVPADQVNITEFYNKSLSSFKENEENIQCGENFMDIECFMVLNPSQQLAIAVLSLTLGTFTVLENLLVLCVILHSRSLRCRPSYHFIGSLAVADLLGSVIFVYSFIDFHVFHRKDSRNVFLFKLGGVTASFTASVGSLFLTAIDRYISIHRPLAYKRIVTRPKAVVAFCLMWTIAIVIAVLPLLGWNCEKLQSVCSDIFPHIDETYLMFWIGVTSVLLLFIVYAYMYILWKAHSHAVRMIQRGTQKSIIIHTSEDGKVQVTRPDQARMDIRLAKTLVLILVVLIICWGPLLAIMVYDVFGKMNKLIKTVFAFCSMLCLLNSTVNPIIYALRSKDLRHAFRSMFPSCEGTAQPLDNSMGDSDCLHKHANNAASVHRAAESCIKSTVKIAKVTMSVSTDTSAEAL
valueType: CB1 selectivity Ki CB2/KiCB1
Format: numeric value only, no unit, no commentary.

Consider CCCCCn1cc(C(=O)Oc2cccc3cccnc23)c2ccccc21 . Its measured CB1 selectivity Ki CB2/KiCB1 is 1.4

compound O=C(NCc1ccccc1)c1cn(CCCCCF)c2ccccc12 , CB1 selectivity Ki CB2/KiCB1 observed: 6.0

Entry CCCCCn1cc(C(=O)Nc2cccc3ccccc23)c2ccccc21 — recorded CB1 selectivity Ki CB2/KiCB1 = 12.0

The compound identified as CCc1ccc(C(=O)c2cn(CCCCCF)c3ccccc23)c2ccccc12 registered its CB1 selectivity Ki CB2/KiCB1 at 1.0

Reported CB1 selectivity Ki CB2/KiCB1 ( O=C(Nc1cccc2ccccc12)c1cn(CCCCCCl)c2ccccc12 ) = 3.2

Recorded result, CCCCCn1cc(C(=O)NCc2ccccc2)c2ccccc21 , CB1 selectivity Ki CB2/KiCB1: 3.5

For this compound ( O=C(Nc1ccc2ccccc2c1)c1cn(CCCCCF)c2ccccc12 [Compound 7, 5F-NNEI-2-naphthyl-isomer] ), measured CB1 selectivity Ki CB2/KiCB1 is 1.0

Recorded CB1 selectivity Ki CB2/KiCB1 (compound O=C(Oc1cccc2ccccc12)c1cn(CCCCCF)c2ccccc12 ): 2.2

CB1 selectivity Ki CB2/KiCB1 in this record for O=C(Oc1cccc2cccnc12)c1cn(CCCCCF)c2ccccc12 : 1.4

Notebook: CCCCCn1nc(C(=O)Nc2cccc3ccccc23)c2ccccc21 , CB1 selectivity Ki CB2/KiCB1 read as 0.9

# CB1 selectivity Ki CB2/KiCB1 (compound: O=C(Oc1cccc2ccccc12)c1cn(Cc2ccc(F)cc2)c2ccccc12 ) is 2.0

Query O=C(Nc1cccc2ccccc12)c1nn(CCCCCF)c2ccccc12 yields CB1 selectivity Ki CB2/KiCB1 of 1.5

Recorded result, O=C(Oc1cccc2cccnc12)c1cn(CC2CCCCC2)c2ccccc12 , CB1 selectivity Ki CB2/KiCB1: 1.6

Field CB1 selectivity Ki CB2/KiCB1 (entry O=C(Nc1cccc2ccccc12)c1cn(CCCCCF)c2ccccc12 ) reads 3.6

// O=C(Oc1cccc2ccccc12)c1nn(CCCCCF)c2ccccc12 : CB1 selectivity Ki CB2/KiCB1 value = 1.3

In plain terms, O=C(Oc1cccc2cccnc12)c1cn(Cc2ccc(F)cc2)c2ccccc12 has a documented CB1 selectivity Ki CB2/KiCB1 of 1.2

Lab note: measured CB1 selectivity Ki CB2/KiCB1 of O=C(c1cccc2ccccc12)c1nn(CCCCCF)c2ccccc12 was 1.0
